Attribution: ChEMBL document CHEMBL1140205

target: Fatty-acid amide hydrolase 1 (Homo sapiens); experiment: Inhibition of FAAH; conditions: read-out: IC50
REPORTED METRIC: log10 IC50 (log10 of the value in nM)

- COMPOUND: "CCCCC/C=C\\C/C=C\\C/C=C\\C/C=C\\CCCNC(=O)NCc1ccc(OC)c(O)c1"
  RESULT: 3.30
- COMPOUND: "CCCCC/C=C\\C/C=C\\C/C=C\\C/C=C\\CCCC(=O)NCCO [ANANDAMIDE]"
  RESULT: 3.53
- COMPOUND: "CNC(=O)COC(=O)N1CCC(CCc2ccc(Cl)cc2)CC1"
  RESULT: 1.11
- COMPOUND: "CCCCC/C=C\\C/C=C\\C/C=C\\C/C=C\\CCCC(=O)NC12CC3CC(CC(C3)C1)C2"
  RESULT: 4.57
- COMPOUND: "CC(C)c1cccc(CN2CCC(CCCC(=O)c3ncco3)CC2)c1"
  RESULT: 0.56
- COMPOUND: "O=C(NC1CCCC1)Oc1cccc(C(=O)c2nc3ccccc3o2)c1"
  RESULT: 4.45
- COMPOUND: "NC(=O)c1cccc(-c2cccc(OC(=O)NCc3ccc4ccccc4c3)c2)c1"
  RESULT: -0.20
- COMPOUND: "CCCCC/C=C\\C/C=C\\C/C=C\\C/C=C\\CCCC(=O)Nc1cccnc1"
  RESULT: 3.08
- COMPOUND: "O=C(NC1CCCC1)Oc1cccc(C(=O)c2nc3ccccc3s2)c1"
  RESULT: 4.67
- COMPOUND: "CCOC(=O)CCCc1ccc(-n2c(CC)nc(-c3ccccc3)c2-c2ccccc2)cc1"
  RESULT: 1.81
- COMPOUND: "CCCCC/C=C\\C/C=C\\C/C=C\\C/C=C\\CCCC(=O)NCC1CC1"
  RESULT: 3.15
- COMPOUND: "CCCCC/C=C\\C/C=C\\C/C=C\\C/C=C\\CCCC(=O)NCCCl"
  RESULT: 2.95

====

biological target: Fatty-acid amide hydrolase 1 (Homo sapiens, UniProt O00519); assay: Inhibition of FAAH; details: read-out: pIC50 (converted)
Sequence (O00519 whole entry): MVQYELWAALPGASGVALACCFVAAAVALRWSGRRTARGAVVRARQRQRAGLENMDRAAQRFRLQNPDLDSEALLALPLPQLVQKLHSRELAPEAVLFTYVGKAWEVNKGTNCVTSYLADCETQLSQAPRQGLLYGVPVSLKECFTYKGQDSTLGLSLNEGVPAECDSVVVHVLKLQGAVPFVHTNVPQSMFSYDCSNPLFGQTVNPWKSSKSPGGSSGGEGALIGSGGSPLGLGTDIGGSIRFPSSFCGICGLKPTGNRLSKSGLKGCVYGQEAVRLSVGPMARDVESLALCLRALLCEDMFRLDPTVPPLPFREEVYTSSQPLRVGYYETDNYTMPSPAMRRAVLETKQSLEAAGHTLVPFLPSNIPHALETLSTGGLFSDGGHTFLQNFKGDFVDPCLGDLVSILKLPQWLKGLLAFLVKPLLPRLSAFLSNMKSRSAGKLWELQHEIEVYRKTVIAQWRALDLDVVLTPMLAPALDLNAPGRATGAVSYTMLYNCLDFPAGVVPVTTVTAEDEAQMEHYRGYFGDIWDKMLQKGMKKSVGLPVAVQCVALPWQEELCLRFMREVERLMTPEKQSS

- COMPOUND: "CCCCCCCCCCCCCCN1C(=O)C(c2ccccc2)(c2ccccc2)NC1=S"
  IC50 [µM]: 1.15
- COMPOUND: "CCCCCCCCCCCCCCCC(=O)NCCCl"
  IC50 [µM]: 2.63
- COMPOUND: "CCCCCCCCCCCCCCCC(=O)NCCCCl"
  IC50 [µM]: 2.51
- COMPOUND: "CCCCCCCCCCCCCCCC(=O)NCCBr"
  IC50 [µM]: 3.55
- COMPOUND: "CCCCCCCCCCCCCCCC(=O)NCCCO [N-(3-HYDROXYPROPYL)PALMITAMIDE]"
  IC50 [µM]: 3.8
- COMPOUND: "CCCCCCCCCCCCCCCC(=O)NCC"
  IC50 [µM]: 3.55
- COMPOUND: "C=CCNC(=O)CCCCCCCCCCCCCCC [HEXADECANOIC ACID ALLYLAMIDE]"
  IC50 [µM]: 3.39

====

biological target: Fatty-acid amide hydrolase 1 (Homo sapiens); assay: Inhibition of FAAH
REPORTED METRIC: Ki

- COMPOUND: "CCCCCCCC/C=C\\CCCCCCCC(C)=O"
  RESULT: "> 100 µM"
- COMPOUND: "O=C(CCCCCCc1ccccc1)c1nnc(-c2ccccn2)[nH]1"
  RESULT: "> 10 µM"
- COMPOUND: "CCCCCCCC/C=C\\CCCCCCC(=O)c1nc2cc(C)ccc2o1"
  RESULT: "> 100 µM"
- COMPOUND: "CCCCCCCC/C=C\\CCCCCCC(=O)c1nccn1C"
  RESULT: "> 100 µM"
- COMPOUND: "CCCCCCCC/C=C\\CCCCCCC(=O)c1ccccn1"
  RESULT: "> 100 µM"
- COMPOUND: "O=C(CCCCCCc1ccccc1)c1nnn[nH]1"
  RESULT: "> 1 µM"
- COMPOUND: "CCCCCCCC/C=C\\CCCCCCC(=O)c1ccccc1"
  RESULT: "> 100 µM"
- COMPOUND: "CCCCCCCC/C=C\\CCCCCCC(=O)c1nc2c(C)cccc2o1"
  RESULT: "> 100 µM"
- COMPOUND: "O=C(CCCCS(=O)(=O)Cc1ccccc1)c1ncc(-c2ccccn2)o1"
  RESULT: "> 10 µM"
- COMPOUND: "CCCCCCCC/C=C\\CCCCCCC(=O)c1nc(-c2ccccc2)c(-c2ccccc2)o1"
  RESULT: "> 100 µM"
- COMPOUND: "CCCCCCCC/C=C\\CCCCCCC(=O)c1nc2ccc(C)cc2o1"
  RESULT: "> 100 µM"
- COMPOUND: "CCCCCCCC/C=C\\CCCCCCCC(OC)OC"
  RESULT: "> 300 µM"

====

molecular target: Fatty-acid amide hydrolase 1 (Homo sapiens); assay: Inhibition of FAAH; details: read-out: IC50
pIC50: −log10 of the molar value.

- COMPOUND: "CCCCC/C=C\\C/C=C\\C/C=C\\C/C=C\\CCCC(=O)O"
  pIC50: "< 4.00"
- COMPOUND: "O=C(Nc1cccc(C(=O)c2nc3ccccc3o2)c1)NC1CCCC1"
  pIC50: "< 3.52"
- COMPOUND: "OB(O)c1ccc(Oc2ccccc2)cc1"
  pIC50: "> 8.00"
